Test system: A498
assay.method.text: NCI tumour cell line growth inhibition, 48 h
Calls of active or inactive are those of the source. Rule as the data show it: active = GI50 up to about 1.1 µM and inactive = higher.
endpoint.name: GI50

# molecule, GI50
rows = [
    ("COc1ccccc1N1C(=O)/C(=C\\c2cccc(Oc3ccccc3)c2)SC1c1ccccc1 (configuration not stated)", "> 100 µM (inactive)"),
    ("NN/C(=N\\c1ccc(Cl)cc1)NS(=O)(=O)c1ccc(S(=O)(=O)c2ccccc2)s1", "49.1 µM (inactive)"),
    ("Cn1cccc1-c1ccc(-c2ccc(CO)[se]2)[se]1", "1.77 µM (inactive)"),
]

Query: For O=C(Nc1ccc(C(F)(F)F)cc1[N+](=O)[O-])C(=O)C1NC(=S)NC1=O (configuration not stated) , what is its reported GI50?
Result: 53 µM (inactive)

Query: For Cn1c(=O)n2n(c1=O)C(C)(C13CC4CC(CC(C4)C1)C3)C13CC4CC(CC1C4)CC23 (configuration not stated) , what is its reported GI50?
Result: > 100 µM (inactive)

Query: For O=C1C[C@H](CCC(=O)OCc2ccccc2)NC(=O)C[C@H](CCC(=O)OCc2ccccc2)NC(=O)C[C@H](CCC(=O)OCc2ccccc2)N1 , what is its reported GI50?
Result: 7.57 µM (inactive)

Query: For CC[C@@H]1CC[C@@H]2[C@H](CC[C@]3(C)[C@@H](OS(=O)(=O)c4ccc(C)cc4)CC[C@@H]23)[C@H]1CO , what is its reported GI50?
Result: > 100 µM (inactive)

Query: For c1c[nH]c(CN2CCN(Cc3ncc[nH]3)CC2)n1 , what is its reported GI50?
Result: > 100 µM (inactive)

Query: For O=C1OCC=C1COC1OC(CO)C(O)C(O)C1O (configuration not stated) , what is its reported GI50?
Result: > 100 µM (inactive)

Query: For COC(=O)C1(Cc2ccc3c(c2)CCC3)Cc2ccc3c(c2C1)CCC3 (configuration not stated) , what is its reported GI50?
Result: 22.3 µM (inactive)

Query: For CSc1ccc(/C=C2\N=C(c3ccccc3)N(c3nc4c(Cl)cc(Cl)cc4s3)C2=O)cc1 , what is its reported GI50?
Result: 17 µM (inactive)

Query: For COC1C2C=CC(C2)[C@H]1[N+](=O)[O-] (some centres not stated) , what is its reported GI50?
Result: > 100 µM (inactive)

Query: For CC(=O)OC1CC2C(C)(C)C(=O)C=C[C@]2(C)C2CCC3(C)C(c4ccoc4)C(=O)C4OC43[C@]12C (some centres not stated) , what is its reported GI50?
Result: 17.6 µM (inactive)

The origin of these recorded values is ChEMBL document CHEMBL1201862.
